Origin of the recorded values: paper PMC11362571

Reported percent of parent values for the following variants.
B1: monoclonal antibody 7g7 (IgG) [mouse] / P. vivax CelTOS (Sal-1, PVX_123510, residue L36-D196) [P. vivax] (parent complex)
chain 1: EIQLQQSGPELVKPGASVKVSCKASGYSFTDYNMYWVKQSHGKSLEWIGYIDPYNGGTRYNQKFRDKATLTVDKSSSTAFMHLNSLTSEDSAVYYCARGYYYGNPLHFDVWGAGTTVTVSSAKTTPPSVYPLAPGSAAQTNSMVTLGCLVKGYFPEPVTVTWNSGSLSSGVHTFPAVLQSDLYTLSSSVTVPSSTWPSETVTCNVAHPASSTKVDKKIVPR
chain 2: QIVLTQSPAIMSASPGEKVTMTCSASSSVSYIHWYQQKSGTSPKRWIYDTSKLASGVPARFSGSGSGTSYSLTISSMEAEDAATYYCQQWISYPATFGAGTKLELKRADAAPTVSIFPPSSEQLTSGGASVVCFLNNFYPKDINVKWKIDGSERQNGVLNSWTDQDSKDSTYSMSSTLTLTKDEYERHNSYTCEATHKTSTSPIVKSFNRNEC
chain 3: LRGKSGSTASSSLEGGSEFSERIGNSLSSFLSESASLEVIGNELADNIANEIVSSLQKDSASFLQSGFDVKTQLKATAKKVLVEALKAALEPTEKIVASTIKPPRVSEDAYFLLGPVVKTLFNKVEDVLHKPIPDTIWEYESKGSLEEEEAEDEFSDELLD

- Variants of: B1
- protocol-description: ELISA; parent: 100; read off a plot

variant-identifier: chain 3 Q57A, chain 3 K58A, chain 3 D59A
percent of parent: ~98%
--
variant-identifier: chain 3 S60A, chain 3 S62A
percent of parent: ~100%
--
variant-identifier: chain 3 R105A, chain 3 V106A, chain 3 S107A
percent of parent: ~77%
--
variant-identifier: chain 3 S36A, chain 3 L37A
percent of parent: ~93%
--
variant-identifier: chain 3 P132A, chain 3 I133A, chain 3 P134A
percent of parent: ~1%
--
variant-identifier: chain 3 S32A, chain 3 E33A, chain 3 S34A
percent of parent: ~83%
--
variant-identifier: chain 3 G16A, chain 3 S17A, chain 3 E18A
percent of parent: ~98%
--
variant-identifier: chain 3 F63A, chain 3 L64A, chain 3 Q65A
percent of parent: ~100%
--
variant-identifier: chain 3 G115A, chain 3 P116A, chain 3 V117A
percent of parent: ~94%
--
variant-identifier: chain 3 E14A, chain 3 G15A, chain 3 G16A
percent of parent: ~100%
--
variant-identifier: chain 3 G67A, chain 3 F68A, chain 3 D69A
percent of parent: ~99%
